Listed here: items and their measured FOB.
Tgt: T1, cyno IL-12RB2 with C-terminal HA tag, transiently expressed on HEK-293T cells (cyno, UniProt A0A2K5VNI7 24-860)
T1 construct: whole, on cells; also called cyno IL-12Rβ2
T1 sequence: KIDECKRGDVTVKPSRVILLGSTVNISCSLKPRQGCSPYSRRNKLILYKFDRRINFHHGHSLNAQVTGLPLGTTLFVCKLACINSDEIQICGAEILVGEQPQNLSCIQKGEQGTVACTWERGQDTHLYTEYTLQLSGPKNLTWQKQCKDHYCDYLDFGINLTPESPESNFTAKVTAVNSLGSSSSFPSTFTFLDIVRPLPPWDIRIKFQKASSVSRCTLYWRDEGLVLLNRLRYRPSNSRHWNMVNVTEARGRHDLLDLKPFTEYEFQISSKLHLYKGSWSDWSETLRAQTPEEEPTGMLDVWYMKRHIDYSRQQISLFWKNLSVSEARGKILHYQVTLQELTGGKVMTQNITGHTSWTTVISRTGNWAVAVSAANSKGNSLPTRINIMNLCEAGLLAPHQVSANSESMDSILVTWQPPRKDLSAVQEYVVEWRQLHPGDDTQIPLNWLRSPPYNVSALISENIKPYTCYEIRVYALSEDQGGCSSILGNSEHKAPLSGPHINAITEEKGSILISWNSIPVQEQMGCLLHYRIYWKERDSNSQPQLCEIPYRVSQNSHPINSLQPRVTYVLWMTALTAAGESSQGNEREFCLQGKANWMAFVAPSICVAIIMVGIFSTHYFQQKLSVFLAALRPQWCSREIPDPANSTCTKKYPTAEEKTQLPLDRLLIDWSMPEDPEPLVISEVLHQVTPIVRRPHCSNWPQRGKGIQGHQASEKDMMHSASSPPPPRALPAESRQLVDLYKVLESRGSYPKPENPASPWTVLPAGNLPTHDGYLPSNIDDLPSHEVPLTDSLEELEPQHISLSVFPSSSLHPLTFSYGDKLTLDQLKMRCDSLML
Experiment Notes: FACS, periplasmic extract, HEK-293T
Give the value in fold but do not write fold after it.

Below: 7 binders and their reported FOB.
[Q] Looking for the measured FOB of VHH19B2 (VHH) VHH: QVQLVESGGGLVQPGGSLRLSCAASGFTFSNYAMSWVRQAPGKGLEWVSAINSDGTSTSYADSVKGQFTISRDNAKNTLYLQMNSLKPEDTAVYYCTKWEGDTDSDYKFKDYWGQGTQVTVSS , can you help?
[A] 2.75

[Q] Quick one: FOB of VHH278B2 (VHH) VHH: QVQLVESGGGLVQAGGSLKLSCAASGGTFSSYAMGWFRQAPGKEREFVAVIMRSGDTTAYVDSVKGRFTVSRDNAKNTVYLQMNSLKPEDAAVYFCAAGRPVTRTYYHTYTYPHDYDYWGQGTQVTVSS ?
[A] 3.97

[Q] May I ask what FOB has been recorded for VHH241B2 (VHH) VHH: QVQLVESGGGLVQLGDSLRLSCAASGRGFSSWTMAWFRQALGKRREFVAAITATGARTCSAESEGRFTISRDNAKNMVFLQMNSLKAEDTAVYYCAATGIASWDPGMADKYTYWGQGTQVTVSS ?
[A] 2.37

[Q] Looking for the measured FOB of VHH85B2 (VHH) VHH: QVQLVESGGGLVQAGGSLRVSCAASGRIPSLNTMAWYRQAPGKQREFVAFITNGGTTNYVDSVEGRFSISRDNTKNAVDLQMNSLKPEDTGVYYCNVQISQYPYNYWGQGTQVTVSS , can you help?
[A] 2.31

[Q] Using the record for VHH64B2 (VHH) VHH: QVQLVESGGGLVQPGGSLRLSCAASGFTFSSKAMHWFRQAPGKGLEWVSSINSGGAITYYKDSVKGRFTVSRDNAKNILYLEMNSLKPEDTALYYCATDTDGRTRGQGTQVTVSS , report its FOB.
[A] 2.69

[Q] Look at this binder and give its reported FOB. VHH294B2 (VHH) VHH: QLQLVESGGGLVQAGGSLRLSCAASGLTFSGYTVGWFRQAPGKEREFVAAINWSSAYTYSEFVKGRFTISRDNAKNTVYLQMSSLKPEDTAVYYCAAQRSRTSWYASTAEAYDYWGQGTQVTVSS
[A] 3.19

[Q] Recorded FOB of VHH219B2 (VHH) VHH: QVQLEESGGGLVQAGGSLRLSCAASGRTFSSYVVGWFRQAPGKEREFVGRISWSGARTYYADSVEGRFTISRDNAKNTVYLQMNSLKPEDTAVYYCAADLKWEVLLSEHYEYWGQGTQVTVSS , please.
[A] 0.99

Further cases:
[Q] // lookup FOB for VHH13B2 (VHH) VHH: QVQLVESGGGLVRPGGSLRLSCAASGFTFSSNGMHWFRQAPGKGLEWVSSIGSGGTSIYYADSVKGRFTISRDNAKNTLYLQMNSLKSDDTAVYYCSKEVTGATRGQGTQVTVSS
[A] 2.65
